Let's look at some sequences and their measured apparent KD of MS2 coat protein.
# Test system: MS2 coat protein
# procedure.details: apparent KD of MS2 coat protein; higher = weaker reporter binding
# condition.parameters: Eterna round: R107; input ligand: arginine 13.2 mM
Report the figure in nM without appending any unit label.

[in] Which apparent KD of MS2 coat protein value is on record for UAUAUAGAUGGAAGUCAUAUAGAUGCAGAAGGAGCGUAGGAAACUACAGGUAGGUCGCUGAGGUACAUGAGGAUCACCCAUGUAG [SSArg A #18 Slice of Pi] ?
[out] 20.8

[in] Param item = GGCACAUAGUCGGCCGCCACUAGAUUUUAGUGGAAUAACAUGAGGAUCACCCAUGUAUUUGGGACUAGGACCGGGACUAUGUGCC [Hyena] ; retrieve measured apparent KD of MS2 coat protein.
[out] 34.5

[in] Name the reported apparent KD of MS2 coat protein value associated with the sequence UACGUGGAUGCGGCCGCCACUGCUCUGAGCGAGUUGCUCUAUGGACAUGAGGAUCACCCAUGUCACAGGACCGGGCACGCUUUAA [theeternabot_sameState_MS2_Trp_B_50]
[out] 9.14

---

Listing of entries alongside the reported apparent KD of MS2 coat protein.
# Tested on: MS2 coat protein
# procedure.details: apparent KD of MS2 coat protein; designed switch direction (-1 OFF switch, 1 ON switch): 1; higher = weaker reporter binding
# condition.parameters: Eterna round: R95; input ligand: microRNA oligo, concentration not stated

Example cases with answers are listed next.
AUAAAACAUGAGGAUCACCCAUGUCAACUAAGUCGAGGAUAUGGGCAAAUAAAAUAAGAACCAGAAGGCGAAUAAU [salish99_ss1_r3_041] (puzzle: Same State 1) : 322 nM
AACAAUCUAUCUGAGGAUAUCAUGAAAUAAACAUGAGGAUCACCCAUGUGCAUGAAAACUGCAUAUGAGAAGGCAGAUAGAUUGA [salish99_ss2_r3_038] (puzzle: Same State 2) : 415 nM

Below: the item to evaluate.
[in] Item GUAGAUGUAGAGGAGGAUAUUCAAUGAGGAACAUGAGGAUCACCCAUGUAAGAGAGAGAUGAUGAGAAGAAGGCUUAGAGAGAUG [Altered State 2-2 - Jieux - Same State 2] (puzzle: Same State 2) has what recorded apparent KD of MS2 coat protein?
[out] 31.3 nM

---

# Tested on: MS2 coat protein
# procedure.details: apparent KD of MS2 coat protein; designed switch direction (-1 OFF switch, 1 ON switch): -1; higher = weaker reporter binding
# condition.parameters: Eterna round: R95; input ligand: FMN 200 uM
measurement.label: apparent KD of MS2 coat protein (µM)
Report the figure in µM without appending any unit label.

Known results for sequences:
AGACAGUCAGGAUAUACAUGAGGAUCACCCAUGUUGAGAUGUGAAAGGGCGGGAGUAGGUAGAAGGGACGAGAG [JR_Exclu3_Sub039] (puzzle: Exclusion 3) : 0.0273
CUGGUCCGAGGAUAUAUUAAGUGAUACAUGAGGAUCACCCAUGUAAUUUGAUGGAAGUAAAUAGAAGGCGGACUAG [Mat - Exclusion 5 - JL mod - D45] (puzzle: Exclusion 5) : 0.0342
AAGAAACAUGAGGAUCACCCAUGUGAGGAUAUGACAAAGAAAAGAAAAGAAAGAAGAAUCAGAAGGCACAAAGG [salish99-ex1_r3_033] (puzzle: Exclusion 1) : 0.121
GAGUGACAUGAGGAUCACCCAUGUGAGGAUAUCCGAUGGACCAAAUUAACAAUAGAAGGGAGAAGGCGCAUAAA [Exclusion 1 V8] (puzzle: Exclusion 1) : 0.133

Then there is this sequence:
[in] Quick one: apparent KD of MS2 coat protein for AGAUGGCGAGGAUAUACAUGAGGAUCACCCAUGUGAAGAUAAUAAGUGAGGAAGAAAAGUAGAAGGCGCUGUCA [Mat - Exclusion 3 - Mod of Salish D26] (puzzle: Exclusion 3) ?
[out] 0.398

---

# Test system: K4 kissing-loop RNA reporter
# procedure.details: apparent KD of K4 kissing-loop reporter; higher = weaker reporter binding
# condition.parameters: Eterna round: R107; input ligand: theophylline 20 uM
// label = true (1) if apparent KD of K4 kissing-loop reporter is not less than 400 nM, otherwise false (0)

Worked examples, 2 sequences total:
UAUUAAUUGACGGCCGCCACUAUGGUGAUUUAUUUGUUUGAGUGAUGUUUUGAUGUUUGAUUUUGUAGGACCGGGUUAUGUGUUA [pokcmullin] : true (1)
UUAUUAAUAACAGAUACCAGUCCAGAAUGAAAACUAUAGUGAUGUUAUAAUAAAGGGAAGGACCCUUGGCAGCUGUAAUAUAUUU [AstrosSSTheB#2] : true (1)

[in] Please tell me: is the sequence AGACUACUGAUAGGAUAUAACAUACUAACUCGUAUACCAAAGGUAUACGAGACCCUUCUAGUGAUGUUAGAAGGGUCGGUAGUCA [Omei KL FMN B Exc B v6] at or over 400 nM in terms of apparent KD of K4 kissing-loop reporter?
[out] false (0)

---

# System: MS2 coat protein
# procedure.details: apparent KD of MS2 coat protein; designed switch direction (-1 OFF switch, 1 ON switch): -1; higher = weaker reporter binding
# condition.parameters: input ligand: FMN 200 uM
Recorded apparent KD of MS2 coat protein for the following sequences
Please respond with the number in µM and leave the unit unwritten.

[in] Quick one: apparent KD of MS2 coat protein for UAUUCGAUAGGAUAUGCACAUCAUUUGGGAGGUAACAGUGCACAUGAGGAUCACCCAUGUAGAAGGAUCUGGAU [Eternabot (L2) Solution 46] (Eterna round: R97, puzzle: Exclusion 2) ?
[out] 0.102

[in] Field request: apparent KD of MS2 coat protein | item: UAUAUACAUGAGGAUCACCCAUGUAAGGAUAUGCUUUAUUAUUAUUAUUAUUAUUAUUGCAGAAGGUACAUUAU [LRO-Excl01-05] (Eterna round: R97, puzzle: Exclusion 1)
[out] 0.0384

---

Measured apparent KD of MS2 coat protein values are reported for all entries that follow.
# Tested on: MS2 coat protein
# procedure.details: apparent KD of MS2 coat protein; higher = weaker reporter binding
# condition.parameters: Eterna round: R107; input ligand: theophylline 2 mM
Your answer should be a plain number; it is taken to be in nM.

Solved cases (2 shown):
ACAUGAGGAUCACCCAUGUGAAGGCACGAUACCAGCUGAUCCCGUGGCCCUUGGCAGCGUCACGUUUGGUCCCGCGGAUGAGACG [crcmullin] : 17
GGAUAGGACAGAAGGAGCGACAUGAGGAUCACCCAUGUCUACUACGUCGAAAGACGCUCAUGUCAGGUAGGUCGCUGUCCUAUCG [#28 Exclusion - Arginine B] : 458

[in] Looking for the measured apparent KD of MS2 coat protein of GUCCAAAGGUCGGCCGCCACUGUAGAGUGUGUUCUUUCACAUGAGGAUCACCCAUGUUGUUAUUAUAGGACCGGGAUUGUAGGAC [#21 Exclusion Tryptophan B] , can you help?
[out] 23.4

[in] Would you kindly share the measured apparent KD of MS2 coat protein for AUGGAGACCUCGGCCGCCACUCUCCAUGAGGAUCUCCCAUGUAACAUGAGGAUCACCCAUGUACUGAGGACCGGGAGGUCCUUGA [Same State Tryptophan B GF 17] ?
[out] 10.1

[in] I'd like to know its apparent KD of MS2 coat protein. The sequence in question is UUAACGAGCUGAAGGAGCGCUCUUCAUCAACAUGAGGAUCACCCAUGUACACAUAAUAGGGAGCAGGUAGGUCGCAGCGGGAUGG [#24 Same State - Arginine B]
[out] 17.4

[in] Fill in: apparent KD of MS2 coat protein of GCGGUACGUACUGAUACCAGAGACAUGAGGAUCACCCAUGUCCCAUGGUCAUGCCUCAGACUCCCUUGGCAGCAGGAUAAGUGCG [Exclusion Theophylline B GF3] is ___
[out] 40.4

---

Quick reference for apparent KD of K4 kissing-loop reporter among some sequences
# System: K4 kissing-loop RNA reporter;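 also: bound reporter read as fluorescence of individual clusters on recovered sequencing chips by microscopy, with normalized cluster intensities fitted with a binding model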
# procedure.details: apparent KD of K4 kissing-loop reporter; higher = weaker reporter binding
# condition.parameters: Eterna round: R107; input ligand: tryptophan 2.4 mM
Remember to follow the number with its unit.

AGGAUCACGUCAGUGAUGUUGACAAGAGAUACCAGAGACGAAAGUCUCCCUUGGCAGCUCAUCGUGAUCCGUGACAAAGGUCACA [Omei KL hio A SS C v3] : 189 nM
UUGUUUUACUGAAGGAGCGGCAAUUGAUACGUAGAUAUAGUGAUGUUAUAUAAGAUAGAGAGCCAGGUAGGUCGCAGAUUUGUUU [ExArgB.U] : 173 nM

[in] Look up apparent KD of K4 kissing-loop reporter: AAUGUACAGGGAAGGAGCGUAGUCCAGUGAUGUUGGAAUUAAAUUCCUGCGAUGUUGGUUAUACAGGUAGGUCGCCCUAAAGUGC [KL-XARG-B22]
[out] 344 nM
